// provenance: PubChem BioAssay (NCI)

- System: MCF7 breast
- Procedure text: NCI-60 one-dose screen, 48 h
- Run parameters: 10 µM unless noted
About 83,000 compounds went through this panel and 20% of them were active in at least one assay; those are over-represented in the sample as a whole. Calls of active or inactive are those of the source. How the source made its calls: active means growth percent below 10; inactive means the rest.
# valid calls are yes = active, no = inactive; nothing else

Task item: GET /call?item= OCCNC(Cc1ccccc1)c1ccc2c(c1)OCO2 (stereo not given) returns the recorded outcome of this test.
Reply: no

Task item: Continue with CCOP1(=O)CC(C)=C(Cl)C(P(=O)(OCC)OCC)C1 (stereo not given)
Reply: no

More entries:
Task item: Outcome logged for CCCCCCCC(=O)OCC(=O)[C@]1(O)Cc2c(O)c3c(c(O)c2[C@@H](OC2CC(N)C(O)C(C)O2)C1)C(=O)c1c(OC)cccc1C3=O (stereo not given in full) in this assay:
Reply: yes
